Target: Human ACVR2A (on cells) (human, UniProt P27037 20-513)
Sequence (P27037 20-513): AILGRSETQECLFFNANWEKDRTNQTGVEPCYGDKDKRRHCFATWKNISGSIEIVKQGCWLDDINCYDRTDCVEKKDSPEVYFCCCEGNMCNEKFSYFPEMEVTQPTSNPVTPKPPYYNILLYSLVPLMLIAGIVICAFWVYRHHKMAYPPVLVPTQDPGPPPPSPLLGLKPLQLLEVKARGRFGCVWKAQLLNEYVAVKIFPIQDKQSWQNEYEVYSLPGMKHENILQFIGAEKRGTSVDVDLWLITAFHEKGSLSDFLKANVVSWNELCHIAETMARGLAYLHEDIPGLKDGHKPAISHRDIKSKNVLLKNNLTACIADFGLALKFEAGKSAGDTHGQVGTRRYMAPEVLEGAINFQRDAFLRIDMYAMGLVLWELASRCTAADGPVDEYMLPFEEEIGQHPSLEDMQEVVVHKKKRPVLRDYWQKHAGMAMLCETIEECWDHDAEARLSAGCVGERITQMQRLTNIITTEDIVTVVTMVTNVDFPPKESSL
Assay: cell-based or functional assay
Measurement Kind: Phospho-SMAD3 Human Skeletal Muscle GDF8 (AlphaLisa, primary human myotubes)
Keep the answer to the number alone.

Below, each entry is followed by its recorded Phospho-SMAD3 Human Skeletal Muscle GDF8 (AlphaLisa, primary human myotubes) result.
>  <Binder>
367_A01 (antibody, V domains shown) VH: EVQLLESGGGLVQPGGSLRLSCAASGFTFSSYSMNWVRQAPGKGLEWVASINYNGGYTGYADSVKGRFTISRDNSKNTLYLQMNSLRAEDTAVYYCARSATWHDTHLDYWGQGTLVTVSS VL: DIQMTQSPSSLSASVGDRVTITCRASQSILTYLNWYQQKPGKAPKLLIYAATSRASGVPSRFSGSGSGTDFTLTISSLQPEDFATYYCQQSYDLPLTFGGGTKVEIK

>  <Value Reported>
0.0065

$$$$
>  <Binder>
375_A06 (antibody, V domains shown) VH: EVQLLESGGGLVQPGGSLRLSCAASGFTFSSYSMNWVRQAPGKGLEWVAGINYNSGYKGYADSVKGRFTISRDNSKNTLYLQMNSLRAEDTAVYYCARSATWHDTHLDYWGQGTLVTVSS VL: DIQMTQSPSSLSASVGDRVTITCRASQSILTYVNWYQQKPGKAPKLLIYAASSLQSGVPSRFSGSGSGTDFTLTISSLQPEDFATYYCQQSYSTPLTFGGGTKVEIK

>  <Value Reported>
0.0318

$$$$

Suppose we examine the binder 373_E06 (antibody, V domains shown) VH: EVQLLESGGGLVQPGGSLRLSCAASGFTFDSYSMNWVRQAPGKGLEWVAGINYNSGYKSYADSVKGRFTISRDNSKNTLYLQMNSLRAEDTAVYYCARSATWHDTHLDYWGQGTLVTVSS VL: DIQMTQSPSSLSASVGDRVTITCRASQSILRYLNWYQQKPGKAPKLLIYAATSLHSGVPSRFSGSGSGTDFTLTISSLQPEDFATYYCQQSYDNPLTFGGGTKVEIK ; what Phospho-SMAD3 Human Skeletal Muscle GDF8 (AlphaLisa, primary human myotubes) value has been reported? 0.0005
